assay: Terminal elimination half life in Sprague-Dawley rat at 3 mg/kg, iv; assay type: ADME, organism-based; design: dose 3 mg/kg, route intravenous; details: in vivo, read-out: beta t1/2 (converted)
Measured Parameter: half-life (h)
Give your result in h as a bare value.

State its half-life for this molecule: CC1Cc2c(Br)cccc2N1C(=O)Cc1nc(N2CCOCC2)sc1C(=O)O (single isomer, unassigned; enantiomer 1) 3.8

###

molecular target: Phosphatidylinositol 4,5-bisphosphate 3-kinase catalytic subunit beta isoform (Homo sapiens, UniProt P42338); experiment: Inhibition of PI3Kbeta in human PTEN-deficient PC3 cells assessed as Akt phosphorylation at S473; type: cell-based, PC-3
Sequence (P42338 whole entry, canonical isoform): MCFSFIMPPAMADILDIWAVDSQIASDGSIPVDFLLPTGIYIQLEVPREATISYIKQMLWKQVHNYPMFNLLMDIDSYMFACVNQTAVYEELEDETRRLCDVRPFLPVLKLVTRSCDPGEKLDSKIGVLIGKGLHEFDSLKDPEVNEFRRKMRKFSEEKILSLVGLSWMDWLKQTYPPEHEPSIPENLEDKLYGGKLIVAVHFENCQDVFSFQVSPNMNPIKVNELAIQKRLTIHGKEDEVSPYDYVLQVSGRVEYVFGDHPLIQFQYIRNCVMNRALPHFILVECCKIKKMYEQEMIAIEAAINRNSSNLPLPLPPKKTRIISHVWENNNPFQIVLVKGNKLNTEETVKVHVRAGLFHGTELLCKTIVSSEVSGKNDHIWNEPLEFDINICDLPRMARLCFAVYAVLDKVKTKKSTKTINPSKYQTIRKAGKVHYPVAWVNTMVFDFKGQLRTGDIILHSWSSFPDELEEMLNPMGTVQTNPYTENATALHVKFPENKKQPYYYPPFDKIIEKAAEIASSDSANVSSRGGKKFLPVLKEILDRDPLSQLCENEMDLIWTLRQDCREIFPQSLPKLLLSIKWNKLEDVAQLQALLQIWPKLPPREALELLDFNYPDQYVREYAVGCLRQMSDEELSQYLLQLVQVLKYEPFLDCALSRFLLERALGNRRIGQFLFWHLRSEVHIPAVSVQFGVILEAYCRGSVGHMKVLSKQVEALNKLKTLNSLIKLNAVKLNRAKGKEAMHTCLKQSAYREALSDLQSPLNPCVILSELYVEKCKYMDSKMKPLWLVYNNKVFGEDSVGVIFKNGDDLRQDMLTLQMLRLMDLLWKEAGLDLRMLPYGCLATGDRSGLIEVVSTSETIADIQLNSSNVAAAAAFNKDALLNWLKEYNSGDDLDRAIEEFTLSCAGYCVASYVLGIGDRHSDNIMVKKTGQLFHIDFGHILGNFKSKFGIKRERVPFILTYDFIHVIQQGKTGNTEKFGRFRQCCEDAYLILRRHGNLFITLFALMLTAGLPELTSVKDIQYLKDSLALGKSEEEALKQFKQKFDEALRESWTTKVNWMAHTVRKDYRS
This listing pairs compounds with measured log10(IC50).
Heads up, the numbers here are log10 of IC50 in nM units.

These recorded examples may help you get a feel for the data.
State its log10(IC50) for this compound: O=C(O)c1sc(N2CCOCC2)nc1CC(=O)N1CCc2ccccc21 3.15

State its log10(IC50) for this compound: CC1Cc2c(Br)cccc2N1C(=O)Cc1nc(N2CCOCC2)sc1C(=O)O (single isomer, unassigned; enantiomer 2) 2.49

State its log10(IC50) for this compound: NC(=O)c1sc(N2CCOCC2)nc1CC(=O)N1CCc2cc(F)ccc21 1.18

More entries:
State its log10(IC50) for this compound: CC1Cc2ccccc2N1C(=O)Cc1nc(N2CCOCC2)sc1C(N)=O (racemic) 1.60

State its log10(IC50) for this compound: O=C(O)c1sc(N2CCOCC2)nc1CC(=O)N1CCc2cc(F)ccc21 3.24

State its log10(IC50) for this compound: CC1Cc2c(Cl)cccc2N1C(=O)Cc1nc(N2CCOCC2)sc1C(=O)O (centres undefined) 2.94

State its log10(IC50) for this compound: NC(=O)c1sc(N2CCOCC2)nc1CC(=O)N1CCc2cc(Br)ccc21 2.62

State its log10(IC50) for this compound: CC1Cc2c(Br)cccc2N1C(=O)Cc1nc(N2CCOCC2)sc1C(N)=O (single isomer, unassigned; enantiomer 2) 1.23

State its log10(IC50) for this compound: CC1Cc2c(Cl)cccc2N1C(=O)Cc1nc(N2CCOCC2)sc1C(N)=O (centres undefined) 1.11
